From: ChEMBL document CHEMBL4373703

Biological target: Voltage-gated inwardly rectifying potassium channel KCNH2 (Homo sapiens)
Sequence (Q12809 whole entry): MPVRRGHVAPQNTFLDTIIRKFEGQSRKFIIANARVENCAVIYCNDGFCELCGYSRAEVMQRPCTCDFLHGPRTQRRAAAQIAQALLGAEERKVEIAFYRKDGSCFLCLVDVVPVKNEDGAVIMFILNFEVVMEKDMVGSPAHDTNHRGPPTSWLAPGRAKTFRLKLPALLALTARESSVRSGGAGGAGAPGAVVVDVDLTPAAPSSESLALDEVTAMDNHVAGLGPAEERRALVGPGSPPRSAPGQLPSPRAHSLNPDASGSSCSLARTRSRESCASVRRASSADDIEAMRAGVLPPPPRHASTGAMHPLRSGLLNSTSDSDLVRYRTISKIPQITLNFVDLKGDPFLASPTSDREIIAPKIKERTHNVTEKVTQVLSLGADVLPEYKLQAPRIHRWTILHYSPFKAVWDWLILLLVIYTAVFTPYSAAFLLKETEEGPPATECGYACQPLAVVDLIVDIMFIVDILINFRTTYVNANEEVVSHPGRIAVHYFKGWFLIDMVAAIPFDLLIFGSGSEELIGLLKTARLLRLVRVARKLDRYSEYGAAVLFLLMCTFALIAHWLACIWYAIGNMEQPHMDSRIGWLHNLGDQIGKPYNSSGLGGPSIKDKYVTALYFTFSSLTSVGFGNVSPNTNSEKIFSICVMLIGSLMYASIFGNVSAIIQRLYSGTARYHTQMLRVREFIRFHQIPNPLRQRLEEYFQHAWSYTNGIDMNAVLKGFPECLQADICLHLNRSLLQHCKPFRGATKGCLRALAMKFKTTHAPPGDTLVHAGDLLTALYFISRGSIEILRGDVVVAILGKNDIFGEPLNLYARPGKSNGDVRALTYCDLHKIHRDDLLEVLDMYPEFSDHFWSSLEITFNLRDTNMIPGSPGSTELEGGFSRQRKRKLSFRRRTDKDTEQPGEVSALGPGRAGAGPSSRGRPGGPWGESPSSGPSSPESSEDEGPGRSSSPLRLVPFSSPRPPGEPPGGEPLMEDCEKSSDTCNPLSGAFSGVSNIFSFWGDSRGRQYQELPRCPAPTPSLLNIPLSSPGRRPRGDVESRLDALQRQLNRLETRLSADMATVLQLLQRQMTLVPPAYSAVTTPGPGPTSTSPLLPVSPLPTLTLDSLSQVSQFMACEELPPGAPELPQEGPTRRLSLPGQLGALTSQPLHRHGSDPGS
pKi: −log10 of the molar value.
The label depends only on pKi: satisfied if it is at least 6, not satisfied if it is smaller.

Could you verify whether the entry C=CC(=O)Nc1cccc(Nc2ncnc(N)c2-c2ccc(Oc3ccccc3)cc2)c1 shows pKi of no less than 6?
satisfied

Could you verify whether the entry C=CC(=O)N[C@@H]1CCC[C@H](Nc2ncnc(N)c2-c2ccc(Oc3ccccc3)cc2)C1 (relative stereo) shows pKi of no less than 6?
not satisfied

Could you verify whether the entry C=CC(=O)N1CCC(CNc2ncnc(N)c2-c2ccc(Oc3ccccc3)cc2)CC1 shows pKi of no less than 6?
not satisfied

----------
Target: Tyrosine-protein kinase BTK (Homo sapiens)
Sequence (Q06187 whole entry, the tested form may be a part): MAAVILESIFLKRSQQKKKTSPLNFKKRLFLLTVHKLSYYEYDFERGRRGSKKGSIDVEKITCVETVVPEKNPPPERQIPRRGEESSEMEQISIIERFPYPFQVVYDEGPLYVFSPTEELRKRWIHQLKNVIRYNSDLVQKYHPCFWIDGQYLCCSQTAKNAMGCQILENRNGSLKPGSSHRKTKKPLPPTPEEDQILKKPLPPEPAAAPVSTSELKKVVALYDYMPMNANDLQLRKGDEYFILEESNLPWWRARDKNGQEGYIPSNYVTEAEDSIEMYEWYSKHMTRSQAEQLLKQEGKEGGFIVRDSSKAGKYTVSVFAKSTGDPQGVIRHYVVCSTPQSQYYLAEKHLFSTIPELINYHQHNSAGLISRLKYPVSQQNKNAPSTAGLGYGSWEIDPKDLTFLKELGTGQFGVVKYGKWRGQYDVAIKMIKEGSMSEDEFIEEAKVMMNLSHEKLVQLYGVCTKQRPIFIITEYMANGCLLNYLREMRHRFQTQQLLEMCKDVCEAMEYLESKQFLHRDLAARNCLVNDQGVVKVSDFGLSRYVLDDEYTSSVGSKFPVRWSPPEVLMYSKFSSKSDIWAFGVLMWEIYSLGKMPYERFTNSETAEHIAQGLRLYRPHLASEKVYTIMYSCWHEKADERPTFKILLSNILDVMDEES
Test: Covalent inhibition of N-terminal GST-fused human BTK (2-659(end) amino acids) expressed in baculovirus expression system using FITC-AHA-EEPLYWSFPAKKK-NH2 as substrate incubated for 90 mins by microfluidic off-Chip Mobility Shift Assay
test.readout: pIC50
Keep it numeric: pIC50 is minus log10 of the concentration in mol/L.

Which pIC50 is reported with Tyrosine-protein kinase BTK (Homo sapiens) for this entry: C=CC(=O)Nc1cccc(Oc2ccncc2-c2ccc(Oc3ccccc3)cc2)c1 ?
7.36

Which pIC50 is reported with Tyrosine-protein kinase BTK (Homo sapiens) for this entry: C=CC(=O)N1CCC(CNc2ncnc(N)c2-c2ccc(Oc3ccncc3)cc2)CC1 ?
6.14

Which pIC50 is reported with Tyrosine-protein kinase BTK (Homo sapiens) for this entry: C=CC(=O)NC12CCC(Nc3ncnc(N)c3-c3ccc(Oc4ccccc4)cc3)(C1)C2 ?
8.00

Which pIC50 is reported with Tyrosine-protein kinase BTK (Homo sapiens) for this entry: C=CC(=O)N1CCC(Nc2ncnc(N)c2-c2ccc(Oc3ccccc3)cc2)CC1 ?
5.82
